# system tested: MAL^TIR (Homo sapiens, UniProt P58753)
# Construct: MAL (residues 79–221); 6xHis; made in house; host or cells: E. coli BL21 (DE3)
# Sequence (P58753 79-221): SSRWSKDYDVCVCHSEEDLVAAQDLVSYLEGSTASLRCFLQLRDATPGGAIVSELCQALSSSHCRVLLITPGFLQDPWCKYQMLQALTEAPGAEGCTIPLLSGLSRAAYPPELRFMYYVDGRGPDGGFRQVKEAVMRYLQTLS
# assay overview: T‐Surf phage library (P8 and P3) selection against MAL^TIR, four rounds, NGS read counts
# Assay type: binding
# particulars: P8 library, selection against MAL, rank by count after grouping
parameter measured: P8_MAL Rank (after)
# answer = number (no unit)

Below, each entry is followed by its recorded P8_MAL Rank (after) result.
1) SFFDRLVSVILRDTNV
701
2) FDRFHIYFLHFLLFSR
680
3) WFYVRLVILALRDNNM
690
4) AFFWAICIMRWCRRAF
708
5) WFYEPLLSMLLRATKV
706
6) WFYERRVSLILLLTIV
684
7) AFFWAQLKSVLQSDD
679
8) RNFWRIFFRRWPIKG
714

INPUT: Recorded P8_MAL Rank (after) for KLIQGWFLYRLMQIEQ , please?
OUTPUT: 707

INPUT: Entry WFYERLVSLIRRDIKV has what P8_MAL Rank (after)?
OUTPUT: 694

INPUT: What value of measured P8_MAL Rank (after) is listed for LRKIADLSGWTLKSFR ?
OUTPUT: 677
